testMethodNotes: MTT cytotoxicity assay, IMR90
Type: cell-based, human
conditionNotes: human, IMR90 lung fibroblasts, IMR90, 48 h, read-out: LC50 (cell death)
Record form. Attribute: CC50 at 48 h. Fill in for each entry.

[Q] Report measured CC50 at 48 h; entry is CC1=CC=C[C@]2(C)CC(=O)C(=C(C)C)C[C@H]12 (relative stereo) [Compound 1, selina-1,3,7(11)-trien-8-one]
[A] > 500 µM

[Q] Report measured CC50 at 48 h; entry is CC1=COC=C[C@]2(C)CC(=O)C(=C(C)C)C[C@H]12 (relative stereo) [Compound 2, oxidoselina-1,3,7(11)-trien-8-one]
[A] > 500 µM

---

Tested on: HepG2 (human hepatoma carcinoma cells)
testMethodNotes: MTT cytotoxicity assay, HepG2
Type: cell-based
conditionNotes: Homo sapiens, HepG2, 48 h, 10–500 μM, read-out: IC50 (cell viability)
readoutLabel: IC50

[Q] Report measured IC50; entry is CC1=CC=C[C@]2(C)CC(=O)C(=C(C)C)C[C@H]12 (relative stereo)
[A] > 500 µM

[Q] Report measured IC50; entry is CC1=COC=C[C@]2(C)CC(=O)C(=C(C)C)C[C@H]12 (relative stereo)
[A] 525 µM

Values from paper PMC7867026
